Overview of reported Drug uptake across a group of compounds:
System: Heart
Assay: Biodistribution in Sprague-Dawley rat heart at 14.8 to 18.5 MBq, iv measured at 60 mins post-injection by gamma counting analysis
Format: ADME, organism-based
Settings: in vivo, 1 h
Express your answer as a number followed by its unit.

// known answers, use as guide
What does the data say about its Drug uptake? Entry: Cn1cc(-c2ccncc2)c(-c2ccc(OCc3ccc4cc(O[11CH3])ccc4n3)cc2)n1 0.182 % ID/g

Now give it for Cn1cc(-c2ccncc2)c(-c2ccc(OCc3nc4ccccc4cc3O[11CH3])cc2)n1 too. 0.199 % ID/g

Now the compound Cn1cc(-c2ccncc2)c(-c2ccc(OCc3cc(O[11CH3])c4ccccc4n3)cc2)n1 0.121 % ID/g

Turning to the following compound.
Tell me the measured Drug uptake of Cn1ncc(-c2ccncc2)c1-c1ccc(OCc2cc(O[11CH3])c3ccccc3n2)cc1 , please. 0.103 % ID/g

---

System: Striatum
Assay: Biodistribution in Sprague-Dawley rat striatum at 14.8 to 18.5 MBq, iv measured at 30 mins post-injection by gamma counting analysis
Format: ADME, organism-based
Conditions: in vivo, 0.5 h
Let's look at some compounds and their measured Drug uptake.

Previously resolved entries follow.
Please give the measured Drug uptake for this compound: Cn1cc(-c2ccncc2)c(-c2ccc(OCc3ccc4cc(O[11CH3])ccc4n3)cc2)n1 0.16 % ID/g

Another: Cn1cc(-c2ccncc2)c(-c2ccc(OCc3cc(O[11CH3])c4ccccc4n3)cc2)n1 0.23 % ID/g

Then this compound: Cn1ncc(-c2ccncc2)c1-c1ccc(OCc2cc(O[11CH3])c3ccccc3n2)cc1 0.083 % ID/g

Now examine the next entry.
Need Drug uptake of Cn1cc(-c2ccncc2)c(-c2ccc(OCc3nc4ccccc4cc3O[11CH3])cc2)n1 , thanks. 0.452 % ID/g

---

Tested on: Liver
Test: Biodistribution in Sprague-Dawley rat liver at 14.8 to 18.5 MBq, iv measured at 60 mins post-injection by gamma counting analysis
Type: ADME, organism-based
Details: in vivo, 1 h
// reported Drug uptake for each item listed
Give the quantity in % ID/g, number only.

These recorded examples may help you get a feel for the data.
What value of measured Drug uptake is listed for Cn1cc(-c2ccncc2)c(-c2ccc(OCc3cc(O[11CH3])c4ccccc4n3)cc2)n1 ? 8.941

One more compound: Cn1cc(-c2ccncc2)c(-c2ccc(OCc3nc4ccccc4cc3O[11CH3])cc2)n1 6.398

Okay, and Cn1ncc(-c2ccncc2)c1-c1ccc(OCc2cc(O[11CH3])c3ccccc3n2)cc1 ? 4.588

Please find the next compound below.
Need Drug uptake of Cn1cc(-c2ccncc2)c(-c2ccc(OCc3ccc4cc(O[11CH3])ccc4n3)cc2)n1 , thanks. 1.724

---

Some compounds, each annotated with its measured Drug uptake.
System: Liver
Assay: Biodistribution in Sprague-Dawley rat liver at 14.8 to 18.5 MBq, iv measured at 5 mins post-injection by gamma counting analysis
Type: ADME, organism-based
Details: in vivo
Report the figure in % ID/g without appending any unit label.

Observe how each entry below is paired with its result.
So what's the measured Drug uptake for this one? Cn1cc(-c2ccncc2)c(-c2ccc(OCc3ccc4cc(O[11CH3])ccc4n3)cc2)n1 5.357

Another compound to look at: Cn1ncc(-c2ccncc2)c1-c1ccc(OCc2cc(O[11CH3])c3ccccc3n2)cc1 3.312

Also, Cn1cc(-c2ccncc2)c(-c2ccc(OCc3cc(O[11CH3])c4ccccc4n3)cc2)n1 please. 7.08

# ---- query compound ----
Find the recorded Drug uptake belonging to Cn1cc(-c2ccncc2)c(-c2ccc(OCc3nc4ccccc4cc3O[11CH3])cc2)n1 and report it. 11.005

---

The entries below come with measured Drug uptake values attached.
System: Cerebellum
Test: Biodistribution in Sprague-Dawley rat cerebellum at 14.8 to 18.5 MBq, iv measured at 30 mins post-injection by gamma counting analysis
Assay type: ADME, organism-based
Details: in vivo, 0.5 h
Numbers only; they are read as % ID/g.

As a guide, the following entries are already answered.
What value of measured Drug uptake is listed for Cn1ncc(-c2ccncc2)c1-c1ccc(OCc2cc(O[11CH3])c3ccccc3n2)cc1 ? 0.024

Could you do the same for Cn1cc(-c2ccncc2)c(-c2ccc(OCc3ccc4cc(O[11CH3])ccc4n3)cc2)n1 , please? 0.09

---
Any idea what its Drug uptake is? The molecule is Cn1cc(-c2ccncc2)c(-c2ccc(OCc3cc(O[11CH3])c4ccccc4n3)cc2)n1 0.066

Then this molecule: Cn1cc(-c2ccncc2)c(-c2ccc(OCc3nc4ccccc4cc3O[11CH3])cc2)n1 0.097

---

Test: Drug metabolism in iv dosed cynomolgus monkey plasma assessed as compound remaining measured at 60 mins post-injection by HPLC analysis
Assay type: ADME, organism-based, Macaca fascicularis
Details: read-out: Stability
metric: remaining at 1 h (%)
Form entry: value (%) — number only.

Which remaining at 1 h value belongs to Cn1cc(-c2ccncc2)c(-c2ccc(OCc3cc(O[11CH3])c4ccccc4n3)cc2)n1 ? 42

---

Tested on: Rattus norvegicus
Experiment: Biodistribution in Sprague-Dawley rat fat at 14.8 to 18.5 MBq, iv measured at 30 mins post-injection by gamma counting analysis
Format: ADME, organism-based, Adipose tissue
Settings: in vivo, 0.5 h
The following compounds are shown together with reported Drug uptake values.
State just the number; it will be interpreted in % ID/g.

Study these solved cases before continuing.
So what Drug uptake did Cn1cc(-c2ccncc2)c(-c2ccc(OCc3cc(O[11CH3])c4ccccc4n3)cc2)n1 get with Rattus norvegicus? 0.371

For Cn1cc(-c2ccncc2)c(-c2ccc(OCc3ccc4cc(O[11CH3])ccc4n3)cc2)n1 then? 0.221

And what about the compound Cn1cc(-c2ccncc2)c(-c2ccc(OCc3nc4ccccc4cc3O[11CH3])cc2)n1 ? 0.851

As a next step, examine the compound that follows.
What is its Drug uptake for Rattus norvegicus? Entry: Cn1ncc(-c2ccncc2)c1-c1ccc(OCc2cc(O[11CH3])c3ccccc3n2)cc1 0.139

---

System: Muscle tissue
Test: Biodistribution in Sprague-Dawley rat muscle at 14.8 to 18.5 MBq, iv measured at 60 mins post-injection by gamma counting analysis
Format: ADME, organism-based
Settings: in vivo, 1 h
metric: Drug uptake (% ID/g)
# output: bare number, implied unit % ID/g

For orientation, consider the following solved cases.
Name the reported Drug uptake value associated with the compound Cn1cc(-c2ccncc2)c(-c2ccc(OCc3ccc4cc(O[11CH3])ccc4n3)cc2)n1 0.129

Quick one: Cn1cc(-c2ccncc2)c(-c2ccc(OCc3nc4ccccc4cc3O[11CH3])cc2)n1 0.142

Similarly, Cn1cc(-c2ccncc2)c(-c2ccc(OCc3cc(O[11CH3])c4ccccc4n3)cc2)n1 ? 0.084

// switching to the query compound
Quick one: Drug uptake for Cn1ncc(-c2ccncc2)c1-c1ccc(OCc2cc(O[11CH3])c3ccccc3n2)cc1 ? 0.052

---

Assay: Drug metabolism in iv dosed cynomolgus monkey plasma assessed as compound remaining measured at 30 mins post-injection by HPLC analysis
Format: ADME, organism-based, Macaca fascicularis
Details: read-out: Stability
metric: remaining at 0.5 h (%)
Numeric only. Scale: %

Given the compound Cn1cc(-c2ccncc2)c(-c2ccc(OCc3cc(O[11CH3])c4ccccc4n3)cc2)n1 , what is its reported remaining at 0.5 h? 60

---

Some molecules, each annotated with its measured Drug uptake.
System: Lung
Test: Biodistribution in Sprague-Dawley rat lung at 14.8 to 18.5 MBq, iv measured at 60 mins post-injection by gamma counting analysis
Format: ADME, organism-based
Conditions: in vivo, 1 h
The reply should contain only the number, in % ID/g.

Some solved entries appear below for comparison.
May I ask what Drug uptake has been recorded for Cn1ncc(-c2ccncc2)c1-c1ccc(OCc2cc(O[11CH3])c3ccccc3n2)cc1 ? 0.107

Ok, now Cn1cc(-c2ccncc2)c(-c2ccc(OCc3ccc4cc(O[11CH3])ccc4n3)cc2)n1 0.249

// same read-out, input: Cn1cc(-c2ccncc2)c(-c2ccc(OCc3nc4ccccc4cc3O[11CH3])cc2)n1 0.299

Now, please, on to the next molecule.
I'd like to know its Drug uptake. The molecule in question is Cn1cc(-c2ccncc2)c(-c2ccc(OCc3cc(O[11CH3])c4ccccc4n3)cc2)n1 0.163

---

Documented Drug uptake across a set of compounds
Test system: Brain
Assay: Biodistribution in Sprague-Dawley rat brain at 14.8 to 18.5 MBq, iv measured at 60 mins post-injection by gamma counting analysis
Assay type: ADME, organism-based
Settings: in vivo, 1 h
Lab book: enter the figure in % ID/g, no units written.

Recorded results for 3 compounds are shown here.
# returns recorded Drug uptake (system: Brain) for Cn1cc(-c2ccncc2)c(-c2ccc(OCc3cc(O[11CH3])c4ccccc4n3)cc2)n1 0.057

Consider next the compound Cn1cc(-c2ccncc2)c(-c2ccc(OCc3ccc4cc(O[11CH3])ccc4n3)cc2)n1 in the same way. 0.074

Try the compound Cn1cc(-c2ccncc2)c(-c2ccc(OCc3nc4ccccc4cc3O[11CH3])cc2)n1 0.095

Continue with the next compound.
Provide the documented Drug uptake with Brain as the system for Cn1ncc(-c2ccncc2)c1-c1ccc(OCc2cc(O[11CH3])c3ccccc3n2)cc1 0.015
